system: HMLE-Snail cell line; assay: Formation of HMLE-Snail cell line spheroids; assay type: cell-based; details: 10 μg/ml, treated for 24 hours; control = 100; read-out: Colony (%): cell colony number of drug-treated group/cell colony number of control group × 100%
Recorded activity at 10 µg/mL for the following compounds

>  <compound>
[O-][S+](/C=C/CCN=C=S)c1nc2ccccc2[nH]1 (stereo not drawn)

>  <studyTarget>
HMLE-Snail cell line

>  <activity at 10 µg/mL>
30 to 35%

$$$$
>  <compound>
O=c1ccc2cc([S+]([O-])/C=C/CCN=C=S)ccc2o1 (stereo not drawn)

>  <studyTarget>
HMLE-Snail cell line

>  <activity at 10 µg/mL>
25 to 30%

$$$$

Continue with the compound presented below.
I would be grateful if you could share the reported activity at 10 µg/mL for N#Cc1cc([S+]([O-])/C=C/CCN=C=S)cc(C(F)(F)F)c1 (stereo not drawn) . 15 to 20%
